Test: Cytotoxicity against human MRC5 cells incubated for 24 hrs by MTS assay
Assay type: toxicity, cell-based
recorded metric: CC50 at 24 h (µg/mL)
// return numeric value only (unit: µg/mL, not printed)

>  <smiles notation>
CCCOC(=O)[C@H]1O[C@@H](n2ccc(N)nc2=O)C=C[C@@H]1NC(=O)C[C@@H](N)CCN(C)C(=N)N

>  <CC50 at 24 h [µg/mL]>
10.2

$$$$
>  <smiles notation>
CN(CC[C@H](N)CC(=O)N[C@H]1C=C[C@H](n2ccc(N)nc2=O)O[C@@H]1C(=O)OCc1ccccc1)C(=N)N

>  <CC50 at 24 h [µg/mL]>
17.4

$$$$

Query block: // query CC50 at 24 h value for entry `C#CCCCOC(=O)[C@H]1O[C@@H](n2ccc(N)nc2=O)C=C[C@@H]1NC(=O)C[C@@H](N)CCN(C)C(=N)N`
Result block: 50.4
